# PROTOCOL_DETAILS: BET inhibitor-based combinations targeting novel dependencies in MECOM-rearranged (r) AML: AML-194 cell line (AID 2202237; note: nearly all actives have a fitted effect of over 40% in size)
# ASSAY_SETUP: AML-194 (MECOM-r AML) viability, CellTiter-Glo, 48 h; series mostly up to 46 µM
Records with an inconclusive call do not appear. Activity calls are given as the source filed them. Calls come from the whole dose curve; as a rule, active = well fitted inhibition curve with a large enough effect; inconclusive = small, poorly fitted or top-dose-only effect; inactive = flat fitted curve, though single readings scatter.
// allowed return values: active, inactive

Reference set, count: 4
[
  {
    "SMILES_STR": "C/C=C1\\NC(=O)[C@H]2CSSCC/C=C\\[C@H](CC(=O)N[C@H](C(C)C)C(=O)N2)OC(=O)[C@H](C(C)C)NC1=O",
    "CLASS_NAME": "active"
  },
  {
    "SMILES_STR": "N#Cc1c(N(CC(=O)O)CC(=O)O)sc(C(=O)O)c1CC(=O)O",
    "CLASS_NAME": "inactive"
  },
  {
    "SMILES_STR": "Cn1cc(CNCC2CCN(c3ncc(C(=O)NO)cn3)CC2)c2ccccc21",
    "CLASS_NAME": "active"
  },
  {
    "SMILES_STR": "Cc1cnc(NC(=O)Nc2cc(Br)c(C)cc2OC[C@@H]2CNCCO2)cn1",
    "CLASS_NAME": "active"
  }
]

Now, please, on to the next compound.
Task: Fill in: this test's call for C=CC(=O)N1CC(N2CCN(C(=O)CNc3cc(C4(C)CC4)c(Cl)cc3O)CC2)C1 is ___
Output: inactive

----------
# EXPERIMENTAL_TARGET: Retinaldehyde dehydrogenase 3 (Homo sapiens)
# PROTOCOL_DETAILS: qHTS for Inhibitors of the Aldehyde Dehydrogenase Family (ALDH1A3) Confirmatory screens (AID 2061311); note: nearly all actives have a fitted effect of over 60% in size
# ASSAY_SETUP: ALDH inhibition qHTS; series mostly up to 46 µM
Inconclusive results are not listed. Calls of active or inactive are those of the source. Calls follow the shape of the dose curve; as a rule, active = well fitted inhibition curve with a large enough effect; inconclusive = small, poorly fitted or top-dose-only effect; inactive = no such curve, though single readings can be large or run the other way.
// allowed return values: y for active, n for inactive

Task: Fill in: this test's call for CNc1ncc(-c2cccc3ccccc23)o1 is ___
Output: y

Task: Fill in: this test's call for CC(=O)NC(c1ccco1)c1cc(Cl)c2ccccc2c1O (stereo not given) is ___
Output: y

Task: Fill in: this test's call for Cc1ccc(NC(=O)CSc2nc3ncccc3[nH]2)cc1F is ___
Output: n

Task: Fill in: this test's call for Cc1nnc2ccc(N3CCC(NC(=O)c4cccc(C(F)(F)F)c4)CC3)nn12 is ___
Output: n

Task: Fill in: this test's call for O=C(Nc1ccc([C@@H](O)[C@H]2COCC(=O)N2CCCc2ccccc2)cc1)C1CCC1 is ___
Output: n

Task: Fill in: this test's call for CN(C)[C@H]1CCN(c2cccc(Nc3nn4c(=O)c5ccccc5nc4s3)c2)C1 is ___
Output: y

Task: Fill in: this test's call for CCCCN1C(=O)c2ccccc2NC1c1ccc(OC)c(COc2ccc(NC(C)=O)cc2)c1 (stereo not given) is ___
Output: y

Task: Fill in: this test's call for COc1ccc(N2CCN(C(=S)Nc3cc(C)ccn3)CC2)cc1 is ___
Output: y

----------
# EXPERIMENTAL_TARGET: Aldehyde dehydrogenase 1A1 (Homo sapiens) (UniProt P00352)
# PROTOCOL_DETAILS: qHTS for Inhibitors of the Aldehyde Dehydrogenase Family (ALDH1A1) Confirmatory screens (AID 2061316); note: nearly all actives have a fitted effect of over 65% in size
# ASSAY_SETUP: ALDH inhibition qHTS; series mostly up to 47.3 µM
Inconclusive results are not listed. Activity calls are given as the source filed them. The call rests on the fitted dose curve; in most records, active means well fitted inhibition curve with a large enough effect; inconclusive means small, poorly fitted or top-dose-only effect; inactive means no such curve, though single readings can be large or run the other way.
// allowed return values: active, inactive

Reference set, count: 6
[
  {
    "COMPOUND": "N#CNC(=O)c1ccc(-n2cccc2/C=C2\\NC(=O)N(CC(=O)Nc3ccc(F)cc3)C2=O)cc1",
    "CLASS_NAME": "inactive"
  },
  {
    "COMPOUND": "Cc1ccc(NC(=O)c2cc(-c3ccc(Br)s3)nc3ccccc23)cc1F",
    "CLASS_NAME": "inactive"
  },
  {
    "COMPOUND": "CN(C)[C@H]1CCN(c2cccc(Nc3nn4c(=O)c5ccccc5nc4s3)c2)C1",
    "CLASS_NAME": "active"
  },
  {
    "COMPOUND": "O=C(Nc1cccc(Br)c1)c1cc(-c2ccc3c(c2)OCCO3)on1",
    "CLASS_NAME": "inactive"
  },
  {
    "COMPOUND": "O=C(O)CN1C(=O)/C(=C/c2ccc(-c3cccc(Cl)c3)o2)SC1=S",
    "CLASS_NAME": "active"
  },
  {
    "COMPOUND": "CC(=O)Nc1ccc(OCc2cccc(C3Nc4ccccc4C(=O)N3Cc3ccco3)c2)cc1 (stereo not given)",
    "CLASS_NAME": "active"
  }
]

Task: Fill in: this test's call for Cc1cc(-c2nnc3n2CCCC3)c(C)n1-c1ccccc1 is ___
Output: active

Task: Fill in: this test's call for CC(C)(C)NS(=O)(=O)c1cccc(Nc2nn3c(=O)c4ccccc4nc3s2)c1 is ___
Output: active

Task: Fill in: this test's call for Cc1ccc(S(=O)(=O)Nc2cnccc2C(=O)Nc2nc(-c3ccc4c(c3)CCCC4)cs2)cc1 is ___
Output: active

Task: Fill in: this test's call for CCc1noc(-c2cccn3c(CNC(=O)COc4ccc(F)cc4)nnc23)n1 is ___
Output: inactive
